# ASSAY_TARGET: Interleukin-1 receptor-associated kinase 4 (Homo sapiens);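 further: reported figure is the mean inhibition of IRAK4 activity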
# DETAILS: at 0.1 µM
PARAMETER: inhibition

Dear colleague, could you please provide inhibition for the compounds listed below?
1. COc1cccc(-n2ncc3c(N/N=C/c4ccncc4)ncnc32)c1
2. COc1cc(C=NNc2ncnc3c2cnn3Cc2ccccc2)ccc1O
3. CCn1c(-c2nonc2N)nc2c(C#CC(C)(C)O)ncc(OCC3CCNCC3)c21
4. CCn1c(-c2nonc2N)nc2c(C#CCN)ncc(OCCCN)c21

Ans.
1. 2.61%
2. 1.48%
3. -1.36%
4. 1.9%

Qu. Return reported inhibition; argument: CCn1c(-c2nonc2N)nc2c(C#CC(C)(C)O)nc(O[C@@H](CN)c3ccccc3)cc21
Ans. 2.57%
